Test: NCI Yeast Anticancer Drug Screen. Data for the cln2 rad14 strain (AID 165);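 also: 0% = growth equal to vehicle treated cultures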
Details: S. cerevisiae cln2 rad14 strain, at 50.0 µM (retest, dose inferred, filed as 5.0), stronger effect = higher value
This is part of a sample that, as a whole, favours compounds with a hit. Of some 79,000 tested, about 15% had one in any assay.

# compound, growth inhibition (%)
rows = [
    ("O=[N+]([O-])c1c(Cl)ccc2nsnc12", 84),
    ("C=C(CN(C)C)C(=O)c1ccccc1Cl", 25),
    ("Cc1ccsc1C(=S)Nc1ccc(Cl)c(/C=N/OC(C)C)c1", 17),
    ("CC(=O)c1c(O)c2ccc(Cl)cc2[nH]c1=O", 59),
    ("C[n+]1c(/C=C/c2cccc([N+](=O)[O-])c2)sc2ccccc21", 97),
    ("S=C(N/N=C/c1ccccn1)N1CCCCC1", 99),
    ("CCN(CC)c1c(C(=O)/C=C/c2ccc(Cl)cc2)c(-c2ccccc2)nn(C)c1=O", 82),
    ("O=C1/C(=C/c2ccccc2[N+](=O)[O-])COc2ccccc21", 94),
    ("COC(=O)CCC(NC(=S)N/N=C(\\C)c1cnc2ccccc2n1)C(=O)OC (configuration not stated)", 10),
    ("COc1ccc(C(=O)C(c2ccc(OC)cc2)C2(O)C(=O)Nc3c(Cl)cc(Cl)cc32)cc1 (configuration not stated)", 25),
    ("O=C(CNc1cccc(Cl)c1)Nn1c(-c2ccccc2)nc2ccccc2c1=O", 74),
    ("O=C(Nc1ccccc1)c1ccc([N+](=O)[O-])o1", 31),
    ("O=C(Nc1ccc(/C=C/c2ccc(NC(=O)c3cc(S(=O)(=O)O)c4cccnc4c3O)cc2S(=O)(=O)O)c(S(=O)(=O)O)c1)c1cc(S(=O)(=O)O)c2cccnc2c1O", 95),
    ("CC1=C(C(=O)Nc2ccccc2)C(c2ccc(C(C)C)cc2)C(C(=O)Nc2ccccc2)=C(C)N1", 94),
    ("O=C1C=CC2C(=O)c3ccccc3C(=O)C2=C1 (configuration not stated)", 71),
    ("NC1c2ccccc2-c2ccc([N+](=O)[O-])cc21 (configuration not stated)", -4),
    ("COc1cc2c(cc1OC)-c1nc(N)sc1CC2", 4),
    ("O=C1OS(=O)(=O)c2cc3c(cc21)C1C(C2C3C3(Cl)C(Cl)=C(Cl)C2(Cl)C3(Cl)Cl)C2(Cl)C(Cl)=C(Cl)C1(Cl)C2(Cl)Cl (configuration not stated)", 77),
    ("CC(C)CCC(C)(C)c1cc(O)ccc1O", 92),
    ("O=[N+]([O-])c1cccc2c[n+](Cc3ccccc3)ccc12", 15),
    ("CN(C(=O)c1ccccc1)C1(COC(=O)c2ccccc2)CCCCC1", 1),
    ("Nc1cccc2c1C(=O)c1ccc(Cl)cc1C2=O", 6),
    ("Nc1ccc(Cl)c2ccccc12", 26),
    ("Clc1ccc2nc(CCSCCc3nc4ccc(Cl)cc4[nH]3)[nH]c2c1", 99),
    ("[N-]=[N+]=NCC(O)c1ccc2c(c1)[nH]c1ccccc12 (configuration not stated)", 23),
    ("Cc1ccc(C2SCC(=O)N2c2ccc(-n3c(-c4ccccc4)nc4ccccc4c3=O)cc2)cc1 (configuration not stated)", 87),
    ("O=[N+]([O-])/C=C/c1cc2c(ccc3ccccc32)[nH]1", 92),
    ("CC(=O)Nc1ccc(/C=C2/NC(=S)N(/C=C3\\C(=O)Oc4ccccc4C3=O)C2=O)cc1", 64),
    ("Oc1ccc2c(c1)OCC1c3ccccc3OC21 (configuration not stated)", 56),
    ("CN(C)Cc1ccccc1C(=O)C(=O)c1ccccc1CN(C)C", 0),
    ("C/C(=N\\O)c1ccc2c3c(ccc([N+](=O)[O-])c13)CC2", -5),
    ("CSC(=N)N1N=C2/C(=C/c3ccccc3)CCC[C@H]2[C@H]1c1ccccc1", 5),
]
